Tested on: Mus musculus
Assay text: Anticonvulsant activity in ip dosed albino CF1 mouse assessed as protection against 6 Hz current-induced seizures by psychomotor test
Assay type: functional
Calls of active or inactive are those of the source. The rule behind the calls is not given here.
Readout name: ED50

Examples with their reported ED50 follow.
Molecule: O=C(NCCCn1ccnc1)OCCc1ccccc1
ED50: inactive
//
Molecule: CCC(CC)COC(=O)NCCCn1ccnc1
ED50: inactive
//
Molecule: CCCC(COC(=O)NCCCn1ccnc1)C(C)CC (configuration not stated)
ED50: inactive
//
Molecule: CCCC(CC)OC(=O)NCCCn1ccnc1 (configuration not stated)
ED50: 135 mg/kg
//
Molecule: CCCC(C(N)=O)C(C)CC (configuration not stated)
ED50: 27 mg/kg
//
Molecule: CC(COC(=O)NCCCn1ccnc1)CC(C)(C)C (configuration not stated)
ED50: 44 mg/kg

Request: Consider the molecule CCCC(CCC)COC(=O)NCCCn1ccnc1 . State its measured ED50.
Response: 32 mg/kg

Where do the numbers come from? From ChEMBL document CHEMBL3826915.
